Reference for the values: patent US7265152B2

For each of the molecules below, state its EC50.
Tested on: HCV replicon (BB7 sequence) in Huh-7-Clone A cells
Assay: HCV replicon assay: ELISA of NS5A protein in replicon-containing cells (Inhibition of Viral RNA Replication)
Format: cell-based
Details: Hepatitis C virus; HCV replicon assay; ranges of EC50; read-out: Replicon

(Q) Report EC50 under test system HCV replicon (BB7 sequence) in Huh-7-Clone A cells for CNC(=O)c1c(-c2ccc(F)cc2)oc2cc(C(C)=O)c(O)cc12 .
(A) < 10 µM

(Q) Report EC50 under test system HCV replicon (BB7 sequence) in Huh-7-Clone A cells for CNC(=O)c1c(-c2ccc(F)cc2)oc2cc(N(C)S(C)(=O)=O)c(OCC(=O)c3ccc(F)cc3)cc12 .
(A) < 1 µM

(Q) Report EC50 under test system HCV replicon (BB7 sequence) in Huh-7-Clone A cells for CCC(C)(O)COc1cc2c(C(=O)NC)c(-c3ccc(F)cc3)oc2cc1N1CCOCC1 (stereo not shown) .
(A) < 10 µM

(Q) Report EC50 under test system HCV replicon (BB7 sequence) in Huh-7-Clone A cells for CNC(=O)c1c(-c2ccc(F)cc2)oc2cc(C3CNC(=O)C3C(=O)NC)c(OC)cc12 (stereo not shown) .
(A) < 10 µM
